test-target: UniProt:P22033
Sequence (P22033 33-750): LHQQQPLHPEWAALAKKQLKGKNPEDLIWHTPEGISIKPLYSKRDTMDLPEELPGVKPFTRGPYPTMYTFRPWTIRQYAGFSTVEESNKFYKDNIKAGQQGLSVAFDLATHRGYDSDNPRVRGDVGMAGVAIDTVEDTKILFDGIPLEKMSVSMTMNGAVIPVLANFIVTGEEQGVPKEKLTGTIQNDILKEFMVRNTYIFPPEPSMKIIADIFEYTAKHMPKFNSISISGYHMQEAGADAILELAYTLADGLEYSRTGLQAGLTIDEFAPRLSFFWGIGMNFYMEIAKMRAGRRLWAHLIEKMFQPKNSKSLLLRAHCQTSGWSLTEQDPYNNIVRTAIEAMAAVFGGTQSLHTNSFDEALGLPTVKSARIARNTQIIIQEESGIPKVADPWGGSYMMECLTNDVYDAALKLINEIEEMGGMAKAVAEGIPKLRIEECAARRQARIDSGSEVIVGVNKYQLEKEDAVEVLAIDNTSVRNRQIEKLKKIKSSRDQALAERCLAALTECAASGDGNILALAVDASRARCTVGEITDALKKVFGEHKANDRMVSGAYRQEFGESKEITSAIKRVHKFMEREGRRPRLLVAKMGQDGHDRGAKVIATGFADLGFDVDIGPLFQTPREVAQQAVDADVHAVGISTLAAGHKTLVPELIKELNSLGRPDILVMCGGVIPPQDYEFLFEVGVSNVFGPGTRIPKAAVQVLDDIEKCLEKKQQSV
run-description: Metabolite binding to MCM•cob
measured-parameter: Kd (µM)
Give bare numbers, in µM.

Example entries and their recorded answers appear below.
Nc1ncnc2c1ncn2[C@@H]1O[C@H](COP(=O)(O)OP(=O)(O)O)[C@@H](O)[C@H]1O [ADP, adenosine diphosphate] :: 44
C[C@H]1O[C@@H](n2cnc3c(N)ncnc32)[C@H](O)[C@@H]1O [5′-dAdo, 5′-deoxyadenosine] :: 4.2
Nc1ncnc2c1ncn2[C@@H]1O[C@H](COP(=O)(O)OP(=O)(O)OP(=O)(O)O)[C@@H](O)[C@H]1O [ATP, adenosine triphosphate] :: 30

Turning to the following molecule.
Using the record for CC(C)(COP(=O)(O)OP(=O)(O)OC[C@H]1O[C@@H](n2cnc3c(N)ncnc32)[C@H](O)[C@@H]1OP(=O)(O)O)[C@@H](O)C(=O)NCCC(=O)NCCS [CoA, Coenzyme A] , report its Kd. 118
